So I've got a bunch of compounds here, and I need their growth values.
- Test system: HOP-92 NSCLC
- assay_details: NCI-60 one-dose screen, 48 h (100 = growth as untreated, 0 = no growth, -100 = all killed)
- settings: 10 µM unless noted
The panel holds about 83,000 compounds, 20% with a hit somewhere; the sample as a whole holds those more often.
Express your answer in %, writing the number without its unit.

Q: Sample Cc1cc(N(CCCl)CCCl)ccc1C=Nc1cccnc1 — what was its growth?
A: 44.8

Q: Sample Clc1ccc(CO/N=C(\Cn2ccnc2)c2ccc(Cl)cc2Cl)c(Cl)c1 — what was its growth?
A: -31.9

Q: Sample COc1ccc(NC([Se])=NC23CC4CC(CC(C4)C2)C3)cc1 — what was its growth?
A: -6.73

Q: Sample Nc1ncnc2n[nH]nc12 — what was its growth?
A: 77.3

Q: Sample CCCCCCCC(=O)OCC(=O)[C@]1(O)Cc2c(O)c3c(c(O)c2[C@@H](OC2CC(N)C(O)C(C)O2)C1)C(=O)c1c(OC)cccc1C3=O (stereo not given in full) — what was its growth?
A: -73.5

Q: Sample Cc1ccc(S(=O)(=O)C(Cl)(Cl)Cl)cc1 — what was its growth?
A: 82.3

Q: Sample c1ccc(Nc2nc(-c3ccccc3)c[se]2)cc1 — what was its growth?
A: 59.8

Q: Sample CC(=O)O[C@H](C[C@H](C(C)C)N(C)C(=O)[C@@H](NC(=O)[C@H]1CCCCN1C)C(C)C)c1nc(C(=O)N[C@@H](Cc2ccccc2)C[C@H](C)C(=O)O)c(C(C)C)s1 — what was its growth?
A: 51.5

Q: Sample CCC(O)(CN)c1ccccc1 (stereo not given) — what was its growth?
A: 93.1

Q: Sample Cc1cc(N(CCCl)CCCl)ccc1C=Nc1ccccc1-c1ccccc1 — what was its growth?
A: 84.4

* * *

- Tested on: IGROV1 ovarian
- assay_details: NCI-60 one-dose screen, 48 h (100 = growth as untreated, 0 = no growth, -100 = all killed)
- settings: 10 µM unless noted
About 83,000 compounds went through this panel and 20% of them were active in at least one assay; those are over-represented in the sample as a whole.
y if growth is below 20%. n if not; exact matches included in n.

Q: Find out if reported growth for CC1=C(CNO)C2=C(C)C3(CC3)[C@@](C)(O)C(=O)C2=C1 is less than 20%
A: y

Q: Find out if reported growth for O=C(CC1(O)C(=O)Nc2ccccc21)c1ccc(C(=O)NCC2CCC3(CC2)OOC2(CCCCC2)OO3)cc1 (stereo unspecified) is less than 20%
A: n

Q: Find out if reported growth for CCCCN(CCCC)P(=O)(Oc1ccccc1)Oc1ccccc1 is less than 20%
A: n

Q: Find out if reported growth for CNCc1cccnc1 is less than 20%
A: n

Q: Find out if reported growth for CC1(C)C(C(=O)c2cn(CCCCF)c3ccccc23)C1(C)C is less than 20%
A: n

Q: Find out if reported growth for Brc1ccc2c(c1)c(-c1nc(-c3c[nH]c4ncccc34)cs1)cn2CCN1CCOCC1 is less than 20%
A: n

Q: Find out if reported growth for COC(=O)[C@@H](C)C[C@H](Cc1ccccc1)NC(=O)c1csc([C@@H](C[C@H](C(C)C)N(C)C(=O)[C@@H](NC(=O)[C@H]2CCCN2C)C2CC2)OC(C)=O)n1 is less than 20%
A: n

Q: Find out if reported growth for CC1=C(CCCOC(=O)CN)C2=C(C)C3(CC3)[C@@](C)(O)C(=O)C2=C1 is less than 20%
A: n

Q: Find out if reported growth for [Cl][Hg][c]1cc(Br)cc(Br)c1 is less than 20%
A: y

Q: Find out if reported growth for CC(=O)c1ccc(C(=O)NCC2CCC3(CC2)OOC2(CCCCC2)OO3)cc1 is less than 20%
A: y

Q: Find out if reported growth for COC(=O)[C@@H](C)C[C@H](Cc1ccccc1)NC(=O)c1csc([C@@H](C[C@H](C(C)C)N(C)C(=O)[C@@H](NC(=O)[C@H]2CCCCN2C)C2CCCCC2)OC(C)=O)n1 is less than 20%
A: n

Q: Find out if reported growth for CC[C@@H]1[C@@H](C)O[C@@](O)([C@@H](C)[C@H](O)[C@H](C)[C@H]2OC(=O)/C=C/C=C/[C@H](C)[C@@H]([C@@H](C)[C@@H](O)[C@H](C)[C@@]3(O)C[C@@H](O[C@H]4C[C@@H](O)[C@H](O)C(C)O4)[C@H](CC)[C@@H](C)O3)OC(=O)/C=C/C=C/[C@@H]2C)C[C@H]1O[C@@H]1C[C@@H](O)[C@H](O)C(C)O1 (stereo partly specified) is less than 20%
A: y

Q: Find out if reported growth for CC(=O)O[C@H]1C(=O)[C@@]2(C)[C@H]([C@H](OC(=O)c3ccccc3)[C@]3(O)C[C@H](OC(=O)[C@H](OC(=O)OC[C@@H]4COC(C)(C)O4)[C@@H](NC(=O)c4ccccc4)c4ccccc4)C(C)=C1C3(C)C)[C@]1(OC(C)=O)CO[C@@H]1C[C@@H]2O is less than 20%
A: y

Q: Find out if reported growth for C[C@]12CC[C@H]3[C@@H](CC4SC(N)=NC45C/C(=N/NC(N)=O)CC[C@]35C)[C@@H]1CCC2=O (stereo partly specified) is less than 20%
A: y

Q: Find out if reported growth for COC(C(=O)[C@@H](O)[C@@H](C)O)[C@@H]1Cc2cc3cc(O[C@H]4C[C@@H](O[C@H]5C[C@@H](O)[C@H](O)C(C)O5)[C@H](O)C(C)O4)c(C)c(O)c3c(O)c2C(=O)[C@H]1O[C@H]1C[C@@H](O[C@H]2C[C@@H](O[C@H]3C[C@@H](O)[C@@H](O)C(C)O3)[C@@H](O)C(C)O2)[C@H](O)C(C)O1 (stereo partly specified) is less than 20%
A: y

Q: Find out if reported growth for CC1[C@H](C)OC(=O)CC(O)CC(O)CC(O)CCC(O)C(O)C[C@]2(O)CC(O)C(C(=O)O)C(CC(OC3O[C@H](C)[C@@H](O)[C@H](N)[C@@H]3O)/C=C/C=C/C=C/C=C/CC/C=C/C=C/[C@H](C)[C@H]1O)O2 (stereo partly specified) is less than 20%
A: n

* * *

So I've got a bunch of molecules here, and I need their growth values.
- Tested on: T-47D breast
- assay_details: NCI-60 one-dose screen, 48 h (100 = growth as untreated, 0 = no growth, -100 = all killed)
- settings: 10 µM unless noted
The panel holds about 83,000 compounds, 20% with a hit somewhere; the sample as a whole holds those more often. Activity calls are given as the source filed them. Rule for the calls: active = growth percent below 10; inactive = the rest.

Q: Sample CCCCCN(CCCCC)CC(O)c1cc(Cl)ccc1OC (stereo unspecified) — what was its growth?
A: 35% (inactive)

Q: Sample COc1cccc(/C=C/[N+](=O)[O-])c1 — what was its growth?
A: 41.7% (inactive)

Q: Sample CCCCCCCCCCCCCCCCCCOc1ccccc1COP(=O)(O)OOCC[N+](C)(C)C — what was its growth?
A: 16.8% (inactive)

Q: Sample CCOC(=O)N1CC1 — what was its growth?
A: 114% (inactive)

Q: Sample COC(=O)[C@@H](C)C[C@H](Cc1ccc(F)cc1)NC(=O)c1csc([C@@H](C[C@H](C(C)C)N(C)C(=O)[C@@H](NC(=O)[C@H]2CCCCN2C)C2CC2)OC(C)=O)n1 — what was its growth?
A: 60.1% (inactive)

Q: Sample CCCCCCCCC(CO)NCCc1ccccc1 (stereo unspecified) — what was its growth?
A: 96% (inactive)

* * *

- Tested on: HCT-116 colon
- assay_details: NCI-60 one-dose screen, 48 h (100 = growth as untreated, 0 = no growth, -100 = all killed)
- settings: 10 µM unless noted
About 83,000 compounds went through this panel and 20% of them were active in at least one assay; those are over-represented in the sample as a whole.
// NO strictly below 60% in growth; YES otherwise

Q: Test whether the compound CC12CCC3C(CCC4Cc5[nH]c6ccccc6c5CC43C)C1CCC2O (stereo unspecified) records growth of 60% or higher.
A: NO

Q: Test whether the compound COc1cc([C@@H]2c3cc4c(cc3[C@H](OC(C)=O)[C@H]3COC(=O)[C@@H]23)OCO4)cc(OC)c1OC records growth of 60% or higher.
A: NO

Q: Test whether the compound C/C1=C/C(=O)O[C@@H]2C[C@@H](CC[C@H](C)/C=C\C=C\CC1)O[C@@](O)([C@@H]1CSC(=O)N1CO)C2 records growth of 60% or higher.
A: NO

Q: Test whether the compound Cc1cc(N(CCCl)CCCl)ccc1C=Nc1ccc(-c2csc(Cc3ccccc3)n2)cc1 records growth of 60% or higher.
A: YES

Q: Test whether the compound COP(=S)(N1CC1)N1CC1 records growth of 60% or higher.
A: YES

Q: Test whether the compound Cc1c(NS(=O)(=O)c2ccccc2)ccc([N+](=O)[O-])c1Cl records growth of 60% or higher.
A: YES

Q: Test whether the compound N#C[Se]CCN1C(=O)c2ccccc2C1=O records growth of 60% or higher.
A: NO

Q: Test whether the compound COC(=O)[C@@H](C)C[C@H](Cc1ccc(F)cc1)NC(=O)c1csc([C@@H](C[C@H](C(C)C)N(C)C(=O)[C@@H](NC(=O)[C@H]2CCCCN2C)C2CC2)OC(C)=O)n1 records growth of 60% or higher.
A: NO

Q: Test whether the compound CC1=C(CNO)C2=C(C)C3(CC3)[C@@](C)(O)C(=O)C2=C1 records growth of 60% or higher.
A: NO

Q: Test whether the compound COc1cc(C=Nc2cccc(C(=O)O)c2)ccc1N(CCCl)CCCl records growth of 60% or higher.
A: YES

Q: Test whether the compound CN1CCCCC1C(C)(O)c1ccccc1 (stereo unspecified) records growth of 60% or higher.
A: YES

Q: Test whether the compound Clc1ccc(COC(Cn2ccnc2)c2ccc(Cl)cc2Cl)cc1 (stereo unspecified) records growth of 60% or higher.
A: NO

Q: Test whether the compound C1CCC2(CC1)OOCNCOO2 records growth of 60% or higher.
A: YES

Q: Test whether the compound O=C1N[C@@H]2[C@@H](O)[C@@H](O)[C@H](O)C[C@H]2c2cc3c(c(O)c21)OCO3 records growth of 60% or higher.
A: NO

Q: Test whether the compound CCOP(=O)(Nc1ccc2c(c1)/C(=N/NC(N)=S)c1ccccc1-2)OCC records growth of 60% or higher.
A: YES

Q: Test whether the compound C[C@@]12CC=C3c4nc(Nc5cccc(O)c5)sc4CC[C@]3(C)[C@H]1CC[C@]1(C)C(=O)CC[C@@H]21 records growth of 60% or higher.
A: NO

Q: Test whether the compound O=C([O][Hg][c]1ccccc1)c1ccccc1 records growth of 60% or higher.
A: NO

Q: Test whether the compound Clc1cccc(N2COOC3(OOC2)C2CC4CC(C2)CC3C4)c1 records growth of 60% or higher.
A: YES

Q: Test whether the compound Nc1nnnc2nc[nH]c12 records growth of 60% or higher.
A: NO

Q: Test whether the compound C[C@]12C[C@@H](CO)[C@H](O)C[C@@H]1CC[C@@H]1[C@@H]2CC[C@]2(C)[C@@H](O)CC[C@@H]12 records growth of 60% or higher.
A: YES
